methodNotes: Chemoprevention index, ratio of IC50 for mouse Hepa lclc7 cells to activity against mouse quinone reductase
Assay type: functional
Listing of recorded Ratio by entry.
measurementKind: Ratio

• O=C1c2ccccc2C(=O)c2c1ccc(O)c2O = 5.1
• Cc1c(O)cc2c(c1O)C(=O)c1ccc(O)cc1C2=O = 85
• O=C(/C=C/c1ccc(O)cc1)c1ccc(O)cc1O = 9.2

The reported numbers originate from ChEMBL document CHEMBL1141450.
